# System: Escherichia coli TOP10
# assay-text: shrunken log2 fold change of peptide-encoding DNA abundance (4.5 h post-induction vs induction); higher = less antimicrobial activity (less host growth inhibition)
# conditions-used: time post-induction: 4.5 h; library: site-saturation at positions 5, 18, 19, 20
measurement-kind: shrunken log2 fold change
# print the numeric value only

Summary for this sequence, RRIRCRPPRLPRPRPRPCGCPRP : shrunken log2 fold change is -0.0301

Recorded shrunken log2 fold change (sequence RRIRARPPRLPRPRPRPILIPRP ): -0.374

Documented shrunken log2 fold change of RRIRCRPPRLPRPRPRPMIMPRP : -0.854

Reported shrunken log2 fold change for RRIRRRPPRLPRPRPRPWGPPRP was 0.0858

Measured shrunken log2 fold change of RRIRHRPPRLPRPRPRPAFYPRP : -0.332

Value of measured shrunken log2 fold change for the entry RRIRSRPPRLPRPRPRPMEYPRP : -0.00133

Reported shrunken log2 fold change ( RRIRNRPPRLPRPRPRPPEKPRP ) = 0.0323

Input RRIRARPPRLPRPRPRPMNKPRP . Output shrunken log2 fold change: -0.00986

###

# Test system: Escherichia coli TOP10
# assay-text: shrunken log2 fold change of peptide-encoding DNA abundance (4.5 h post-induction vs induction); higher = less antimicrobial activity (less host growth inhibition)
# conditions-used: time post-induction: 4.5 h; library: site-saturation at positions 5, 18, 19, 20
Assign MET to entries whose shrunken log2 fold change meets or exceeds 0.1; assign NOT MET to the rest.

Q) Threshold query (shrunken log2 fold change >= 0.1) on RRIRSRPPRLPRPRPRPTCVPRP
A) NOT MET

Q) Confirm if shrunken log2 fold change reported for the sequence RRIRTRPPRLPRPRPRPNHEPRP is 0.1 or above.
A) NOT MET

Q) // inclusive: shrunken log2 fold change at least 0.1? input: RRIRRRPPRLPRPRPRPPPKPRP
A) MET

Q) Decide: is the reported value of shrunken log2 fold change for RRIRNRPPRLPRPRPRPRHNPRP equal to or greater than 0.1?
A) NOT MET

Q) Is shrunken log2 fold change at least 0.1? Consider RRIRARPPRLPRPRPRPYCGPRP
A) NOT MET

Q) Item RRIRFRPPRLPRPRPRPVWAPRP with shrunken log2 fold change of 0.1 or above?
A) MET

Q) Would you say RRIRKRPPRLPRPRPRPVSQPRP shows shrunken log2 fold change at minimum 0.1?
A) MET

Q) Decide: is the reported value of shrunken log2 fold change for RRIRRRPPRLPRPRPRPRMTPRP equal to or greater than 0.1?
A) MET

Q) # bool: shrunken log2 fold change of RRIRDRPPRLPRPRPRPIFSPRP >= 0.1
A) NOT MET

Q) Given the entry RRIRSRPPRLPRPRPRPWALPRP , answer whether its shrunken log2 fold change meets or surpasses 0.1.
A) NOT MET

Q) hey, is shrunken log2 fold change for this one >= 0.1? RRIRHRPPRLPRPRPRPPFTPRP
A) NOT MET

Q) Could you please find out whether RRIRNRPPRLPRPRPRPMDHPRP has shrunken log2 fold change that meets 0.1 or exceeds it?
A) NOT MET

Q) Does RRIRWRPPRLPRPRPRPTFEPRP have a reported shrunken log2 fold change of at least 0.1?
A) MET

Q) Hello, I need to know if RRIRDRPPRLPRPRPRPPKNPRP has measured shrunken log2 fold change not below 0.1. Thanks!
A) MET

Q) Does shrunken log2 fold change meet or surpass 0.1 for RRIRCRPPRLPRPRPRPVMRPRP ?
A) MET

###

# Test system: Escherichia coli TOP10
# assay-text: shrunken log2 fold change of peptide-encoding DNA abundance (4.5 h post-induction vs induction); higher = less antimicrobial activity (less host growth inhibition)
# conditions-used: time post-induction: 4.5 h; library: site-saturation at positions 5, 18, 19, 20
Tag: true (1) if measured shrunken log2 fold change is not below -0.02, false (0) if it is.

Q) hey, is shrunken log2 fold change for this one >= -0.02? RRIRDRPPRLPRPRPRPCNQPRP
A) false (0)

Q) Item RRIRPRPPRLPRPRPRPMGHPRP with shrunken log2 fold change of -0.02 or above?
A) false (0)

Q) In plain terms: is recorded shrunken log2 fold change at least -0.02 for RRIRSRPPRLPRPRPRPWCKPRP ?
A) true (1)

Q) shrunken log2 fold change >= -0.02 for RRIRWRPPRLPRPRPRPPLTPRP ?
A) true (1)

Q) # check: shrunken log2 fold change of RRIRARPPRLPRPRPRPLEYPRP is greater than or equal to -0.02
A) false (0)

Q) Confirm if shrunken log2 fold change reported for the sequence RRIRPRPPRLPRPRPRPNKWPRP is -0.02 or above.
A) false (0)

Q) Kindly determine if shrunken log2 fold change recorded for RRIRMRPPRLPRPRPRPTMTPRP is above or exactly -0.02.
A) true (1)

Q) Given the entry RRIRVRPPRLPRPRPRPLTDPRP , answer whether its shrunken log2 fold change meets or surpasses -0.02.
A) true (1)

Q) Reported shrunken log2 fold change reaches at least -0.02 for RRIRPRPPRLPRPRPRPTIAPRP ?
A) false (0)

Q) Please tell me: is the sequence RRIRTRPPRLPRPRPRPYSKPRP at or over -0.02 in terms of shrunken log2 fold change?
A) false (0)

Q) Quick check, shrunken log2 fold change >= -0.02? RRIRIRPPRLPRPRPRPGPAPRP
A) true (1)

Q) Is shrunken log2 fold change at least -0.02? Consider RRIRKRPPRLPRPRPRPRPVPRP
A) true (1)

Q) Record RRIRVRPPRLPRPRPRPEEIPRP ; criterion: shrunken log2 fold change no lower than -0.02. Met?
A) true (1)

Q) Please check the record RRIRQRPPRLPRPRPRPHKRPRP and state if its shrunken log2 fold change is at or above -0.02.
A) false (0)

Q) API: above_or_equal(metric=shrunken log2 fold change, cutoff=-0.02) for item RRIRMRPPRLPRPRPRPDNDPRP
A) true (1)

Q) Dear colleague, could you confirm whether RRIRERPPRLPRPRPRPFRWPRP has shrunken log2 fold change at or above -0.02?
A) true (1)

Q) Does the sequence RRIRTRPPRLPRPRPRPNQWPRP have recorded shrunken log2 fold change that is -0.02 or more?
A) false (0)

Q) State whether the measured shrunken log2 fold change reaches -0.02, counting equality as reaching it, for RRIRWRPPRLPRPRPRPLSNPRP
A) false (0)

Q) Threshold query (shrunken log2 fold change >= -0.02) on RRIRQRPPRLPRPRPRPIILPRP
A) false (0)

Q) # check: shrunken log2 fold change of RRIRRRPPRLPRPRPRPNLFPRP is greater than or equal to -0.02
A) true (1)

Q) Assess whether reported shrunken log2 fold change for RRIRIRPPRLPRPRPRPLSGPRP sits at -0.02 or higher.
A) false (0)

Q) Is it the case that RRIRDRPPRLPRPRPRPFADPRP has shrunken log2 fold change reaching or exceeding -0.02?
A) false (0)

Q) // inclusive: shrunken log2 fold change at least -0.02? input: RRIRLRPPRLPRPRPRPRSFPRP
A) false (0)

Q) Record RRIRNRPPRLPRPRPRPKVEPRP ; criterion: shrunken log2 fold change no lower than -0.02. Met?
A) true (1)

Q) Reported shrunken log2 fold change reaches at least -0.02 for RRIRERPPRLPRPRPRPEGLPRP ?
A) true (1)

Q) Has RRIRVRPPRLPRPRPRPVCTPRP a recorded shrunken log2 fold change greater than or equal to -0.02?
A) true (1)

Q) Assess whether reported shrunken log2 fold change for RRIRIRPPRLPRPRPRPLHQPRP sits at -0.02 or higher.
A) false (0)

Q) State whether the measured shrunken log2 fold change reaches -0.02, counting equality as reaching it, for RRIRWRPPRLPRPRPRPCWVPRP
A) false (0)

Q) Record RRIRHRPPRLPRPRPRPIEHPRP ; criterion: shrunken log2 fold change no lower than -0.02. Met?
A) false (0)

Q) Quick check: does RRIRPRPPRLPRPRPRPSPIPRP have shrunken log2 fold change greater than or equal to -0.02?
A) true (1)

Q) Check the entry RRIRPRPPRLPRPRPRPTAMPRP : does shrunken log2 fold change equal or exceed -0.02?
A) true (1)

Q) Decide: shrunken log2 fold change of RRIRHRPPRLPRPRPRPFQTPRP >= -0.02?
A) false (0)

###

# Test system: Escherichia coli TOP10;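 also: peptides expressed intracellularly from a pBAD plasmid library in pooled LB shake-flask culture, induced with 0.3% L-arabinose, DNA abundance read by NGS, three biological replicates, DESeq2 with apeglm shrinkage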
# assay-text: shrunken log2 fold change of peptide-encoding DNA abundance (4.5 h post-induction vs induction); higher = less antimicrobial activity (less host growth inhibition)
# conditions-used: time post-induction: 4.5 h; library: site-saturation at positions 5, 18, 19, 20
measurement-kind: shrunken log2 fold change
Could you keep your reply to the number by itself?

shrunken log2 fold change recorded for this sequence, RRIRARPPRLPRPRPRPHEAPRP , is -0.0395

So, RRIRHRPPRLPRPRPRPTSTPRP ? Its shrunken log2 fold change was -0.199

For this sequence ( RRIRARPPRLPRPRPRPWRPPRP ), measured shrunken log2 fold change is 0.348

Summary for this sequence, RRIRPRPPRLPRPRPRPQMGPRP : shrunken log2 fold change is -0.0457

shrunken log2 fold change measured on RRIRMRPPRLPRPRPRPMEVPRP = 0.0214

The recorded shrunken log2 fold change for entry RRIRPRPPRLPRPRPRPAEDPRP equals -0.114

Given item RRIRQRPPRLPRPRPRPVRFPRP , the value recorded as its shrunken log2 fold change is 0.728

Given item RRIRWRPPRLPRPRPRPLSMPRP , the value recorded as its shrunken log2 fold change is -0.159

The recorded shrunken log2 fold change for entry RRIRWRPPRLPRPRPRPWVFPRP equals 0.262

// field: shrunken log2 fold change; key: RRIRERPPRLPRPRPRPIWAPRP ; value = 0.639

In plain terms, RRIRVRPPRLPRPRPRPHLWPRP has a documented shrunken log2 fold change of -0.0616

Data point: RRIRYRPPRLPRPRPRPDRLPRP ; shrunken log2 fold change = -0.216

Input RRIRVRPPRLPRPRPRPYMCPRP . Output shrunken log2 fold change: -0.274

Entry RRIRNRPPRLPRPRPRPAQFPRP , shrunken log2 fold change reported as 0.0855

So, RRIRKRPPRLPRPRPRPRTTPRP ? Its shrunken log2 fold change was 0.792

Lab book: shrunken log2 fold change of RRIRDRPPRLPRPRPRPMWWPRP noted as -0.0122

// shrunken log2 fold change lookup, sequence = RRIRQRPPRLPRPRPRPENIPRP , result: -0.0809

Measured shrunken log2 fold change of RRIRWRPPRLPRPRPRPFFYPRP : 0.0746

Reported shrunken log2 fold change for RRIRARPPRLPRPRPRPNPEPRP was 0.0539

Lookup result for RRIRRRPPRLPRPRPRPWWVPRP ; measured shrunken log2 fold change: 0.0496

Entry under test: RRIRVRPPRLPRPRPRPRQTPRP . Its shrunken log2 fold change was -0.0375

Just so you know, measured shrunken log2 fold change for RRIRCRPPRLPRPRPRPQFPPRP came out at -0.17

Record RRIRQRPPRLPRPRPRPDGRPRP , field shrunken log2 fold change: 0.0192

// sample RRIRARPPRLPRPRPRPDKFPRP , its shrunken log2 fold change was -0.19

According to the records, this sequence RRIRHRPPRLPRPRPRPVEQPRP displays shrunken log2 fold change of 0.0184

The recorded shrunken log2 fold change for entry RRIRSRPPRLPRPRPRPRHQPRP equals -0.119

Query RRIRDRPPRLPRPRPRPPNRPRP yields shrunken log2 fold change of 0.789

For reference, reported shrunken log2 fold change for RRIRKRPPRLPRPRPRPTDNPRP stands at 0.219

So for RRIRFRPPRLPRPRPRPFGPPRP , the logged shrunken log2 fold change turned out to be -0.159

The reported value for RRIRHRPPRLPRPRPRPQAKPRP in terms of shrunken log2 fold change is -0.016

shrunken log2 fold change measured on RRIRVRPPRLPRPRPRPDKEPRP = 0.000945

Record summary for RRIRARPPRLPRPRPRPIEVPRP : reported shrunken log2 fold change = 0.0287
